The molecules listed here are annotated with their Ki.
# system: DDR2 (Homo sapiens, UniProt Q16832)
# Construct: purchased Life Technologies
# Sequence (Q16832 22-855): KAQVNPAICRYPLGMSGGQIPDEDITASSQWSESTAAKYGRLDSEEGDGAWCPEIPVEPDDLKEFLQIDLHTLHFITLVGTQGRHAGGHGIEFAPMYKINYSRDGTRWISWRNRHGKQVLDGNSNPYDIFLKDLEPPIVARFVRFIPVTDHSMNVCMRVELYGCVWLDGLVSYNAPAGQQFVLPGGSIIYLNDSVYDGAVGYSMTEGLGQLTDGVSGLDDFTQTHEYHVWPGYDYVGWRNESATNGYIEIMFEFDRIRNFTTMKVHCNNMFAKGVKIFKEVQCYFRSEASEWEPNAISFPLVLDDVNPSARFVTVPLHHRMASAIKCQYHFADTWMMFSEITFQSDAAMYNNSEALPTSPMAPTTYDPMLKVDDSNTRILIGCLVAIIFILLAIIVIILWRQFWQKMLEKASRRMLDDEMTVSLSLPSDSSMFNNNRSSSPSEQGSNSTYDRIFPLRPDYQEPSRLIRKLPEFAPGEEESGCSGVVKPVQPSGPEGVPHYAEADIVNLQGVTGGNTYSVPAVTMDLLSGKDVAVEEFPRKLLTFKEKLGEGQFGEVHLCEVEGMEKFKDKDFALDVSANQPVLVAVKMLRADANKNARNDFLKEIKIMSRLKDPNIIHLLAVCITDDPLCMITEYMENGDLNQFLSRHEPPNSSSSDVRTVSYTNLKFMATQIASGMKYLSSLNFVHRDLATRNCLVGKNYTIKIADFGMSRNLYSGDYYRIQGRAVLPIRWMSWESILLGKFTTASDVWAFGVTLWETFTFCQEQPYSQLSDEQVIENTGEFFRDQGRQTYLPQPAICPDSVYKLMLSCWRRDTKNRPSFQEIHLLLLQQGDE
# assay notes: LanthaScreen Europium Kinase Binding assay, DDR2
# applied conditions: 5 nM DDR2, 10 nM Kinase Tracer 178, 1 h at rt; Ki from IC50 by Cheng-Prusoff; read-out: Ki DDR2
readout label: Ki

molecule=Cc1ccc(C(=O)Nc2cncc(C(F)(F)F)c2)cc1[C@@H]1CCN(c2cncc(OCCO)c2)C1 system="DDR2 (Homo sapiens, UniProt Q16832)" assay_value="< 5 nM"
molecule=Cc1ccc(C(=O)Nc2cncc(C(F)(F)F)c2)cc1[C@@H]1CCN(c2cncc(C(=O)NCCO)c2)C1 system="DDR2 (Homo sapiens, UniProt Q16832)" assay_value="5 to 25 nM"
molecule=Cc1ccc(C(=O)Nc2cncc(C(F)(F)F)c2)cc1[C@@H]1CCN(c2cnc3ccc(C#N)cn23)C1 system="DDR2 (Homo sapiens, UniProt Q16832)" assay_value="< 5 nM"
molecule="Cc1ccc(C(=O)Nc2cncc(C(F)(F)F)c2)cc1[C@@H]1CN(c2cncnc2)C[C@H]1CO (racemic)" system="DDR2 (Homo sapiens, UniProt Q16832)" assay_value="5 to 25 nM"
molecule=Cc1ccc(C(=O)Nc2cncc(C(F)(F)F)c2)cc1[C@@H]1CCN(c2cncc(C(=O)N3CCN(C)CC3)c2)C1 system="DDR2 (Homo sapiens, UniProt Q16832)" assay_value="5 to 25 nM"
molecule=Cc1ccc(C(=O)Nc2cc(C(C)(C)C)no2)cc1[C@@H]1CCN(c2cncnc2)C1 system="DDR2 (Homo sapiens, UniProt Q16832)" assay_value="< 5 nM"
molecule=Cc1ccc(C(=O)Nc2cncc(C(F)(F)F)c2)cc1[C@@H]1CCN(c2cnc3[nH]nc(CN(C)C)c3c2)C1 system="DDR2 (Homo sapiens, UniProt Q16832)" assay_value="5 to 25 nM"
molecule=Cc1ccc(C(=O)Nc2cc(C(C)(C)C)no2)cc1[C@@H]1CCN(c2cncc(C(N)=O)c2)C1 system="DDR2 (Homo sapiens, UniProt Q16832)" assay_value="< 5 nM"
molecule=Cc1ccc(C(=O)Nc2cncc(C(F)(F)F)c2)cc1[C@@H]1CCN(c2cnc3cccnn23)C1 system="DDR2 (Homo sapiens, UniProt Q16832)" assay_value="5 to 25 nM"
molecule=Cc1ccc(C(=O)Nc2cncc(C(F)(F)F)c2)cc1[C@@H]1CCN(c2cn[nH]c2)C1 system="DDR2 (Homo sapiens, UniProt Q16832)" assay_value="5 to 25 nM"
molecule="Cc1ccc(C(=O)Nc2cncc(C(F)(F)F)c2)cc1C1CCN(c2cnn3cccnc23)C1 (stereo in doubt)" system="DDR2 (Homo sapiens, UniProt Q16832)" assay_value="5 to 25 nM"
molecule=Cc1ccc(C(=O)Nc2cncc(OC(F)(F)F)c2)cc1[C@@H]1CCN(c2cnn3ccncc23)C1 system="DDR2 (Homo sapiens, UniProt Q16832)" assay_value="< 5 nM"
molecule=Cc1ccc(C(=O)Nc2cc(C(C)(C)C)on2)cc1[C@@H]1CCN(c2cncc(C(N)=O)c2)C1 system="DDR2 (Homo sapiens, UniProt Q16832)" assay_value="< 5 nM"
molecule=Cc1ccc(C(=O)Nc2cncc(C(F)(F)F)c2)cc1[C@@H]1CCN(c2ncnc3ccsc23)C1 system="DDR2 (Homo sapiens, UniProt Q16832)" assay_value="< 5 nM"
molecule=Cc1ccc(C(=O)Nc2cncc(C(F)(F)F)c2)cc1[C@@H]1CCN(c2cncc(OCCN3CCN(C)CC3)c2)C1 system="DDR2 (Homo sapiens, UniProt Q16832)" assay_value="5 to 25 nM"
molecule="O=C(Nc1cncc(C(F)(F)F)c1)c1ccc(C(F)F)c(C2CCN(c3cncnc3)C2)c1 (single isomer, unassigned) [Example 121]" system="DDR2 (Homo sapiens, UniProt Q16832)" assay_value="< 5 nM"
molecule="COc1ccc(C(=O)Nc2cncc(C(F)(F)F)c2)cc1C1CCN(c2cncnc2)C1 (single isomer, unassigned) [Example 110]" system="DDR2 (Homo sapiens, UniProt Q16832)" assay_value="5 to 25 nM"
molecule=Cc1ccc(C(=O)Nc2cncc(C(F)(F)F)c2)cc1[C@@H]1CCN(c2cnc3ccc(CN4CCOCC4)cn23)C1 system="DDR2 (Homo sapiens, UniProt Q16832)" assay_value="5 to 25 nM"
molecule=Cc1ccc(C(=O)Nc2cncc(C(F)(F)F)c2)cc1[C@@H]1CCN(c2cnc3ccc(N4CCN(C)CC4)cn23)C1 system="DDR2 (Homo sapiens, UniProt Q16832)" assay_value="5 to 25 nM"
molecule=CCc1cc(NC(=O)c2ccc(C)c([C@@H]3CCN(c4cncnc4)C3)c2)no1 system="DDR2 (Homo sapiens, UniProt Q16832)" assay_value="5 to 25 nM"
molecule="COc1ccc(C(=O)Nc2cncc(C(F)(F)F)c2)cc1C1CCN(c2ccnc(C(N)=O)c2)C1 (centres unmarked)" system="DDR2 (Homo sapiens, UniProt Q16832)" assay_value="5 to 25 nM"
molecule=Cc1ccc(C(=O)Nc2cncc(C(F)(F)F)c2)cc1[C@@H]1CCN(c2cnn3ccc(C(=O)N4CCOCC4)cc23)C1 system="DDR2 (Homo sapiens, UniProt Q16832)" assay_value="5 to 25 nM"
molecule="O=C(Nc1cncc(C(F)(F)F)c1)c1ccc(OC(F)F)c(C2CCN(c3cncnc3)C2)c1 (centres unmarked) [Example 113]" system="DDR2 (Homo sapiens, UniProt Q16832)" assay_value="< 5 nM"
molecule=Cc1ccc(C(=O)Nc2cc(C(F)(F)F)nn2C)cc1[C@@H]1CCN(c2cncnc2)C1 system="DDR2 (Homo sapiens, UniProt Q16832)" assay_value="5 to 25 nM"
molecule=Cc1ccc(C(=O)Nc2cc(CN(C)C)nc(C(F)(F)F)c2)cc1[C@@H]1CCN(c2ccnc(C(N)=O)c2)C1 system="DDR2 (Homo sapiens, UniProt Q16832)" assay_value="5 to 25 nM"
molecule=Cc1ccc(C(=O)Nc2cc(OC(F)F)ccn2)cc1[C@@H]1CCN(c2cncnc2)C1 system="DDR2 (Homo sapiens, UniProt Q16832)" assay_value="< 5 nM"
molecule=CNc1ncc(N2CC[C@@H](c3cc(C(=O)Nc4cncc(C(F)(F)F)c4)ccc3C)C2)cn1 system="DDR2 (Homo sapiens, UniProt Q16832)" assay_value="5 to 25 nM"
molecule="COc1ccc(C(=O)Nc2cncc(C(F)(F)F)c2)cc1C1CCN(c2cncnc2)C1 (racemic) [Example 111]" system="DDR2 (Homo sapiens, UniProt Q16832)" assay_value="5 to 25 nM"
molecule=CNC(=O)c1cc(N2CC[C@@H](c3cc(C(=O)Nc4cncc(C(F)(F)F)c4)ccc3C)C2)ccn1 system="DDR2 (Homo sapiens, UniProt Q16832)" assay_value="5 to 25 nM"
